Origin of measurements: patent US20220304911A1

Measured MIC values are reported for all entries that follow.
Test system: Streptococcus mutans (S. mutans)
Assay: minimum inhibitory concentration (MIC) assay against S. mutans
Format: cell-based
Settings: Streptococcus mutans
State the answer as a number, implicitly in µg/mL.

Record excerpt, results attached:
| MOLECULE | TARGET_SYSTEM | OBS_VALUE |
| --- | --- | --- |
| C=C(C)[C@@H]1CCC(C)=C[C@H]1c1c(O)cc(CCC)cc1O [CBDV, cannabidivarin] | Streptococcus mutans (S. mutans) | 25 |
| C=C(C)[C@@H]1CCC(C)=C[C@H]1c1c(O)cc(CCCCC)c(C(=O)O)c1O [CBDA, cannabidiolic acid] | Streptococcus mutans (S. mutans) | 25 |
| CCCCCc1cc(O)c2c(c1)OC(C)(CCC=C(C)C)C=C2 (stereo not shown) [CBC, cannabichromene] | Streptococcus mutans (S. mutans) | 25 |
| CCCCCc1cc(O)c2c(c1)OC(C)(C)c1ccc(C)cc1-2 [CBN, cannabinol] | Streptococcus mutans (S. mutans) | 50 |
| CCCCCc1cc(O)c(C/C=C(\C)CCC=C(C)C)c(O)c1 [CBG, cannabigerol] | Streptococcus mutans (S. mutans) | 25 |

Memo: CCCCCc1cc(O)c(C/C=C(\C)CCC=C(C)C)c(O)c1C(=O)O [CBGA, cannabigerolic acid] , reported MIC: 25
